- experimentalSystem: T1, GvpN fused to NGFP or CGFP (Halobacterium salinarum, UniProt Q9HI16 1-347)
- T1 construct: GvpN of the p-vac region of Halobacterium salinarum; gvpN amplified from the p-vac region; GFP fragment at the N- or C-terminus, 14 or 16 aa linker; source: Hfx. volcanii WR340 transformant, split-GFP fusion in living cells
- T1 sequence (looked up): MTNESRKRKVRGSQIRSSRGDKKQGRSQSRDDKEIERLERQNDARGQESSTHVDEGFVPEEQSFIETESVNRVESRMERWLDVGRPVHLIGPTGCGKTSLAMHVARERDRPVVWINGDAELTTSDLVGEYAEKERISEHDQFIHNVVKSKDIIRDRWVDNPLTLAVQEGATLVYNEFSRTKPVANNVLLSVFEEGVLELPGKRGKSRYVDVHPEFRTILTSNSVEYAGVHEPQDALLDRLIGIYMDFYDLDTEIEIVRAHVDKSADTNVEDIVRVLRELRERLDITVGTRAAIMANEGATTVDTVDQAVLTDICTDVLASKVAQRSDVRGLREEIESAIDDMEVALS
- assayComment: split reporter (BiFC, NanoBiT); split-GFP (NGFP and CGFP of salt-stable mGFP2) in Hfx. volcanii transformants, 24 h 37 °C then 24 h 30 °C; relative fluorescence (rf) against the wild type; the highest of eight tag combinations is given
- settings: partners not purified
readoutLabel: relative fluorescence (rf)

1) GvpJ fused to NGFP or CGFP (natural protein, Halobacterium salinarum, UniProt P24374 1-114, looked up, accessory gas vesicle protein GvpJ of Halobacterium salinarum; construct of earlier work; source: Hfx. volcanii WR340 transformant, split-GFP fusion in living cells) MSDPKPTRSQGDLAEMLEMLLDKGVVVNADIAVSVGDTELLGIELRAAIASFETAAEYGLEFPTGTDMERVESAANISPDQSDPASETQSETESTNPLSDDSTPTASTSAEETK :: < 5 LAU/mm^2
2) GvpG fused to NGFP or CGFP (natural protein, Halobacterium salinarum, UniProt P24371 1-83, looked up, accessory gas vesicle protein GvpG of Halobacterium salinarum; construct of earlier work; source: Hfx. volcanii WR340 transformant, split-GFP fusion in living cells) MFIIDDLFVSPFFSLLDILQTMALDEMYDTKSIRDDIKENQLLYEVGERSDEEYQQRKQALESQLEMAEQVQEQMRDRMEVKK :: < 5 LAU/mm^2
